Source of measurements: paper PMC5760267

- assay_target: human immunoproteasome β5i (Homo sapiens, UniProt P20618+P28062)
- method_notes: IC50 against β5i
- Assay type: biochemical
- particulars: β5i over β5c
observable: SIapp: apparent selectivity index = IC50β5c / IC50β5i

Here is how some compounds turned out for SIapp: apparent selectivity index = IC50β5c / IC50β5i.
test_smiles | assay_target | experimental_result
Cc1cc(C(=O)N[C@@H](CC(=O)NC(C)(C)C)C(=O)N[C@@H](C)CC(=O)NCc2cccc3ccccc23)no1 | human immunoproteasome β5i (Homo sapiens, UniProt P20618+P28062) | 465
Cc1ccc(S(=O)(=O)N[C@H](CC(=O)N[C@@H](C)C(=O)NCc2cccc3ccccc23)CC(=O)NC(C)(C)C)cc1 | human immunoproteasome β5i (Homo sapiens, UniProt P20618+P28062) | 2521
Cc1ccc(S(=O)(=O)N[C@@H](CC(=O)NC(C)(C)C)C(=O)N[C@@H](C)CC(=O)NCc2cccc3ccccc23)cc1 | human immunoproteasome β5i (Homo sapiens, UniProt P20618+P28062) | 13600

In the following, a different compound is considered.
So, C[C@@H](CC(=O)NCc1cccc2ccccc12)NC(=O)[C@H](CC(=O)NC(C)(C)C)NC(=O)CCc1ccccc1 ? Its SIapp: apparent selectivity index = IC50β5c / IC50β5i was 1333
